- assayed system: 17-beta-hydroxysteroid dehydrogenase type 1 (Homo sapiens)
- experiment summary: Inhibition of 17betaHSD1 in human T47D cells using [3H]E1 as substrate incubated for 30 mins prior to substrate addition measured after 30 mins by radioflow detection assay
- Type: cell-based
measurement kind: IC50 (nM)
Give the value, in units of nM, as a plain number.

smiles notation: O=S(=O)(CC(F)(F)F)Nc1cccc(-c2c(O)ccc3cc(-c4cccc(O)c4)ccc23)c1
value: 246

Given item `N#Cc1ccccc1S(=O)(=O)Nc1cccc(-c2c(O)ccc3cc(-c4cccc(O)c4)ccc23)c1` , the value recorded as its IC50 is 157

Entry `O=[N+]([O-])c1ccc(S(=O)(=O)Nc2cccc(-c3c(O)ccc4cc(-c5cccc(O)c5)ccc34)c2)cc1` — recorded IC50 = 753

Briefly, IC50 measured for `N#Cc1ccc(S(=O)(=O)Nc2cccc(-c3c(O)ccc4cc(-c5cccc(O)c5)ccc34)c2)cc1` : 555

In plain terms, `O=S(=O)(Nc1cccc(-c2c(O)ccc3cc(-c4cccc(O)c4)ccc23)c1)c1cc(F)c(Br)cc1F` has a documented IC50 of 646

----------
Entries with reported pIC50 on 17-beta-hydroxysteroid dehydrogenase type 2 (Homo sapiens)
Sequence (P37059 whole entry): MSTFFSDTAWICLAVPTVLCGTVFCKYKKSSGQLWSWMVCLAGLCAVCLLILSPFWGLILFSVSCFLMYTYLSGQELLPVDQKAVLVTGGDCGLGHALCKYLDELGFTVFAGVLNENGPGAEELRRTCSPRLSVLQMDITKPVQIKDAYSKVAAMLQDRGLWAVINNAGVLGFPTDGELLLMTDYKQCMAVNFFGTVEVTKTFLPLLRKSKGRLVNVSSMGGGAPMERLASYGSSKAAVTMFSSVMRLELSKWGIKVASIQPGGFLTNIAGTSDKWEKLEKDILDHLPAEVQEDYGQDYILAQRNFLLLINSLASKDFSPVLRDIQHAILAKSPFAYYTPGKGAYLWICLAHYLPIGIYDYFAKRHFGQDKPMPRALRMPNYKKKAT
Answer as the number alone; pIC50 is minus log10 of concentration in mol/L.

Past entries and their recorded results:
smiles notation: O=[N+]([O-])c1cccc(S(=O)(=O)Nc2cccc(-c3c(O)ccc4cc(-c5cccc(O)c5)ccc34)c2)c1
value: 6.43
--
smiles notation: O=[N+]([O-])c1ccc(S(=O)(=O)Nc2cccc(-c3c(O)ccc4cc(-c5cccc(O)c5)ccc34)c2)c([N+](=O)[O-])c1
value: 6.43
--
smiles notation: Cc1ccccc1S(=O)(=O)Nc1cccc(-c2c(O)ccc3cc(-c4cccc(O)c4)ccc23)c1
value: 6.73

Item `O=S(=O)(Nc1cccc(-c2c(O)ccc3cc(-c4cccc(O)c4)ccc23)c1)c1ccccc1F` ; assay system 17-beta-hydroxysteroid dehydrogenase type 2 (Homo sapiens); pIC50 reported as 6.13

Fill in: 17-beta-hydroxysteroid dehydrogenase type 2 (Homo sapiens) pIC50 for `O=S(=O)(Nc1cccc(-c2c(O)ccc3cc(-c4cccc(O)c4)ccc23)c1)c1ccccc1` = 6.39

Entry `N#Cc1cccc(S(=O)(=O)Nc2cccc(-c3c(O)ccc4cc(-c5cccc(O)c5)ccc34)c2)c1` , 17-beta-hydroxysteroid dehydrogenase type 2 (Homo sapiens) data, pIC50 value: 6.22

Observed pIC50 on 17-beta-hydroxysteroid dehydrogenase type 2 (Homo sapiens), entry `O=S(=O)(Nc1cccc(-c2c(O)ccc3cc(-c4cccc(O)c4)ccc23)c1)c1ccc(O)cc1` , equals 6.45

----------
- assayed system: 17-beta-hydroxysteroid dehydrogenase type 1 (Homo sapiens)
- Sequence (P14061 whole entry): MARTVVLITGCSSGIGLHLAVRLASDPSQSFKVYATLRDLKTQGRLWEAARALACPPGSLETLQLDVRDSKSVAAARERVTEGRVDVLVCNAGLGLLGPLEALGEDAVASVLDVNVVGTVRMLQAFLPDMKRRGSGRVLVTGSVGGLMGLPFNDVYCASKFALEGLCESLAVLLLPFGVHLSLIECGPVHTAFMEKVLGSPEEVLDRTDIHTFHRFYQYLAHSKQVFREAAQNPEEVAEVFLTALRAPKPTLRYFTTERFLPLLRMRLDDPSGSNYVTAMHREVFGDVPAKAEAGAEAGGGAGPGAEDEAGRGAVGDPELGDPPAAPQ
- experiment summary: Inhibition of human placenta cytosolic 17betaHSD1 using [3H]E1 as substrate after 10 mins by radioflow detection assay
measurement kind: IC50

smiles notation: O=S(=O)(Nc1cccc(-c2c(O)ccc3cc(-c4cccc(O)c4)ccc23)c1)c1ccccc1
assayed system: 17-beta-hydroxysteroid dehydrogenase type 1 (Homo sapiens)
IC50: 15 nM

So for `O=S(=O)(Nc1cccc(-c2c(O)ccc3cc(-c4cccc(O)c4)ccc23)c1)c1ccc(Br)cc1OC(F)(F)F` , the logged IC50 turned out to be 74 nM

Input `O=S(=O)(Nc1cccc(-c2c(O)ccc3cc(-c4cccc(O)c4)ccc23)c1)c1ccc(O)cc1` . Output IC50: 19 nM

The molecule listed as `O=[N+]([O-])c1ccc(S(=O)(=O)Nc2cccc(-c3c(O)ccc4cc(-c5cccc(O)c5)ccc34)c2)c([N+](=O)[O-])c1` has a reported IC50 of 690 nM

# IC50 of `O=S(=O)(c1ccccc1)n1ccc2ccc(-c3c(O)ccc4cc(-c5cccc(O)c5)ccc34)cc21` = 519 nM

----------
- assayed system: 17-beta-hydroxysteroid dehydrogenase type 1 (Homo sapiens, UniProt P14061)
- Sequence (P14061 whole entry): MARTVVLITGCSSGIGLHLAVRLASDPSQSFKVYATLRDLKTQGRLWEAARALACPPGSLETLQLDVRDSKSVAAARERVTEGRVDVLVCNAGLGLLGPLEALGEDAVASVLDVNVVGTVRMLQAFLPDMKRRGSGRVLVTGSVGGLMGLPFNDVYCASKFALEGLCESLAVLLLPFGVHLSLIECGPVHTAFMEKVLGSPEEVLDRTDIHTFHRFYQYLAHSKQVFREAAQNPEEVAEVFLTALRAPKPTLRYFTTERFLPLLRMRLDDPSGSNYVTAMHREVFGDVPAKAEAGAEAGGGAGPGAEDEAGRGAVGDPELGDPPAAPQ
- experiment summary: Inhibition of 17betaHSD1 in human T47D cells using [3H]E1 as substrate incubated for 30 mins prior to substrate addition measured after 30 mins by radioflow detection assay
- Assay type: cell-based
// values below are reported IC50
Please answer using a numeric value trailed by its unit.

smiles notation: N#Cc1cccc(S(=O)(=O)Nc2cccc(-c3c(O)ccc4cc(-c5cccc(O)c5)ccc34)c2)c1
measurement kind: IC50
value: 0.402 µM
--
smiles notation: O=S(=O)(c1ccccc1)n1ccc2c(-c3c(O)ccc4cc(-c5cccc(O)c5)ccc34)cccc21
measurement kind: IC50
value: 1.1 µM
--
smiles notation: CC(=O)Nc1ccc(S(=O)(=O)Nc2cccc(-c3c(O)ccc4cc(-c5cccc(O)c5)ccc34)c2)cc1
measurement kind: IC50
value: 0.24 µM
--
smiles notation: O=S(=O)(Nc1cccc(-c2c(O)ccc3cc(-c4cccc(O)c4)ccc23)c1)c1ccc(O)cc1
measurement kind: IC50
value: 1.01 µM

Lab note: measured IC50 of `O=S(=O)(Nc1cccc(-c2c(O)ccc3cc(-c4cccc(O)c4)ccc23)c1)c1ccccc1` was 0.196 µM

Given item `O=S(=O)(Nc1cccc(-c2c(O)ccc3cc(-c4cccc(O)c4)ccc23)c1)c1cccs1` , the value recorded as its IC50 is 0.316 µM

The molecule `O=S(=O)(Nc1cccc(-c2c(O)ccc3cc(-c4cccc(O)c4)ccc23)c1)c1ccc2ncccc2c1` showed IC50 equal to 0.498 µM

Recorded IC50 (molecule `Cc1cccc(S(=O)(=O)Nc2cccc(-c3c(O)ccc4cc(-c5cccc(O)c5)ccc34)c2)c1` ): 0.44 µM

----------
- assayed system: 17-beta-hydroxysteroid dehydrogenase type 1 (Homo sapiens) (UniProt P14061)
- Sequence (whole entry): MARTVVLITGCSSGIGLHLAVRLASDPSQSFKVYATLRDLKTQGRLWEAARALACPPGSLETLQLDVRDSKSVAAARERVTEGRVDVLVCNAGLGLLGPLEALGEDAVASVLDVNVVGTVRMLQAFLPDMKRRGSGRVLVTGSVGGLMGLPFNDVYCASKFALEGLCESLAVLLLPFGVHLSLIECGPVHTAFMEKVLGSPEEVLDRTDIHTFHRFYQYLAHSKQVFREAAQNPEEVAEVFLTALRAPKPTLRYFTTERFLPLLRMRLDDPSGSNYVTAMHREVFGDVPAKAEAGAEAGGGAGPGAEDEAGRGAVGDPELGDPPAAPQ
- experiment summary: Inhibition of human placenta cytosolic 17betaHSD1 using [3H]E1 as substrate at 10 nM after 10 mins by radioflow detection assay
measurement kind: inhibition

smiles notation: O=S(=O)(Nc1cccc(-c2c(O)ccc3cc(-c4cccc(O)c4)ccc23)c1)c1cccs1
assayed system: 17-beta-hydroxysteroid dehydrogenase type 1 (Homo sapiens) (UniProt P14061)
inhibition: > 30%
//
smiles notation: O=S(=O)(Nc1cccc(-c2c(O)ccc3cc(-c4cccc(O)c4)ccc23)c1)c1ccc2ncccc2c1
assayed system: 17-beta-hydroxysteroid dehydrogenase type 1 (Homo sapiens) (UniProt P14061)
inhibition: > 30%
//
smiles notation: O=S(=O)(Nc1cccc(-c2c(O)ccc3cc(-c4cccc(O)c4)ccc23)c1)c1ccccc1
assayed system: 17-beta-hydroxysteroid dehydrogenase type 1 (Homo sapiens) (UniProt P14061)
inhibition: > 30%
//
smiles notation: O=S(=O)(Nc1cccc(-c2c(O)ccc3cc(-c4cccc(O)c4)ccc23)c1)c1cccc(F)c1
assayed system: 17-beta-hydroxysteroid dehydrogenase type 1 (Homo sapiens) (UniProt P14061)
inhibition: > 30%
//
smiles notation: O=S(=O)(Nc1cccc(-c2c(O)ccc3cc(-c4cccc(O)c4)ccc23)c1)c1ccc(Br)cc1OC(F)(F)F
assayed system: 17-beta-hydroxysteroid dehydrogenase type 1 (Homo sapiens) (UniProt P14061)
inhibition: > 30%

We next turn to a different compound, shown below.
Kindly note: 17-beta-hydroxysteroid dehydrogenase type 1 (Homo sapiens) (UniProt P14061), `O=[N+]([O-])c1ccc(S(=O)(=O)Nc2cccc(-c3c(O)ccc4cc(-c5cccc(O)c5)ccc34)c2)cc1` , inhibition value reported: > 30%
